experimentDescription: yeast display, Sf9 membrane polyspecificity reagent, FACS + sequencing; frameworks hold sequencing errors
endpointLabel: polyreactivity (PSR sort gate)

Some entries whose results are on file:
residues	polyreactivity (PSR sort gate)
QVQLVESGGGLVQAGGSLRLSCAASGSIFASNAMGWYRQAPGKERELVAAITTSGDSTYYADSVKGRFTISRDHAKTTVYFQMNSLKPEDTAVYYCATDKGWGLMDSWGQGTQVTVSS	low polyreactivity
QVQVVESGGGLVQAGGSLRLSCAASGSIFGRYAMGWYRQAPGKERELVAGITRGGSPYYADSVKGRFTISRDNAKNTVYLQMNSLKPEDTAVYYCNRAARYGEYDYWGQGTQVTVSS	high polyreactivity
QVQLVESGGGLVQAGGSLRLSCAASGFIFRYYAMGWYRQAPGKERELVAAISWSGGSTYYADSVKGRFTISRDNAKNTVYLQMNSLKPEDTAVYYCAADRYAILFYAEDYWGQGTQVTVSS	low polyreactivity
QVQLQESGGGLVQAGGRLRLSCAASGYISTFSSEMGWYRQAPGKERELVASIAPGCTTSYADSVKGRFTISRDYAKNTEFLQMNSLKPEDTAVYYCAVDYTVPASFGYWGQGSQVTVSS	high polyreactivity
QVQLVESGGGLVQAGGSLRLSCAASGSIFGDNAMGWYRQAPGKERELVAAISSSGGSTYADSVKGRFTISRDNAKNTVYLQMNSLKPEDTAVYYCATQIAWGTYVINPQMDYWGQGTQVTVSS	low polyreactivity

Which polyreactivity (PSR sort gate) is reported for this sequence? QVQLVESGGGLVQAGGSLRLSCAASASIFADNTMGWYRQAPGKERELVAAITSSGRTYYADSVKGRFTISLDNAKNTVYLQLNSLKPEDTAVYYCAAVIYFHDYSPYYYWGQGTQVTVSS
high polyreactivity

Can you share its polyreactivity (PSR sort gate)? I mean this sequence: QVQLVESGGGLVQAGGSLRLSCAASGRTFVPNAMGWYRQAPGKERELVAAISDSGGSTYYADSVKGRFTISRDNAKNTVYLQMNSLKPEDTAVYYCATDGTTYVGWEHGFNYWGQGTQVTVSS
low polyreactivity

// query polyreactivity (PSR sort gate) value for entry QDQLEESGGGLVQAGGSLRLSCAATGITFSSNAMGWYRQAPGKERELVAAISWSGGSTYYADSVKGRFTISRDYAKNTVYLQMNSLKPEDTAVYYCNASKHNPYGGDYWGQGTQVTVSS
high polyreactivity

What does the record list as polyreactivity (PSR sort gate) for QVQVVESGGGIVQAGGSLGLSCAASGSNFSYNAMGWYRQAPRKERELVATISNTDSTNYADSVKGRFTISRDNAKNTVYLQMNSLKPEDTAVYYCAVVSARIDYEYWGQGTQVTVSS ?
low polyreactivity

Item QVQLVESGGGLVQAGGSLRLSCAASGRIFLYYAMGWYRQAPGKERELVAAIDSSGGNTNYADSVKGRFTISRDNAKNTVYFQMNSLKPEDTAVYYCAADFYVSADRWPNYDYWGQGTQVTVSS has what recorded polyreactivity (PSR sort gate)?
low polyreactivity

Given the sequence QVQLVESGGGLVQAGGSLRLSCAASGFTLWLYAMGWYRQAPGKERELVASISWAGGSTYYADSVKGRFTISRDNAKNTVYLQMNSLKPEDTAVYYCAASRARTRSAYNYSGQGTQVTVSS , what is its reported polyreactivity (PSR sort gate)?
high polyreactivity
